experimentNotes: amyloid nucleation score (Sup35N fusion, yeast selection) (log enrichment); library NNK1; higher = more nucleation; inactive = no reads after selection;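 note: zero at mode of non-aggregating sequences after 7 days selection at 30°C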
// amyloid nucleation score lookup, one value per entry
Reply briefly: the number, and no unit.

[
  {
    "substance": "FFVSIELITTRLLISQHNSY",
    "measurementName": "amyloid nucleation score",
    "readoutValue": -0.689
  },
  {
    "substance": "HELMLQILGLAFLLGMFAGV",
    "measurementName": "amyloid nucleation score",
    "readoutValue": -0.747
  },
  {
    "substance": "QDRPYVFY",
    "measurementName": "amyloid nucleation score",
    "readoutValue": -0.331
  },
  {
    "substance": "DDLQCITLRFTRDASRGVSL",
    "measurementName": "amyloid nucleation score",
    "readoutValue": 0.843
  },
  {
    "substance": "ITPDVGSGTFEV",
    "measurementName": "amyloid nucleation score",
    "readoutValue": 0.022
  }
]

For the substance FNWLTVSAFHQHRTLTMNMY , report amyloid nucleation score.
0.216

Give the reported value of amyloid nucleation score for this record: RWVYSTRNHLKIVRNNKSEL
-2.15

State its amyloid nucleation score: RLMSADFMQQEMMRGKVMAG
-0.351

====

experimentNotes: amyloid nucleation score (Sup35N fusion, yeast selection) (log enrichment); library NNK3; higher = more nucleation; inactive = no reads after selection
measurementName: amyloid nucleation score

Use these answered entries as a reference point.
[
  {
    "substance": "RKNAVCICSNL",
    "amyloid nucleation score": "inactive"
  },
  {
    "substance": "RVVLHITGLLPSSKKGVRGE",
    "amyloid nucleation score": 0.433
  },
  {
    "substance": "QFDFVLPVGYVFGDGYVLWV",
    "amyloid nucleation score": "inactive"
  },
  {
    "substance": "LRCWYFLNMMMPYPPPSIKW",
    "amyloid nucleation score": "inactive"
  },
  {
    "substance": "VSFRYAYYWFCRTMMTAAKR",
    "amyloid nucleation score": "inactive"
  },
  {
    "substance": "YVVNFVLL",
    "amyloid nucleation score": 2.43
  }
]

For the substance EICGCCWKPVMWTGRCSCVY , report amyloid nucleation score.
inactive

Assign amyloid nucleation score to the following record: AYNLSLNYDGHSSYWYFHTT
-0.134

In one line, give reported amyloid nucleation score of the entry KRMWKGE .
inactive

Retrieve amyloid nucleation score measured for YYLVSSMFYMFQSNEVNGNM and print it.
inactive

====

Listing: amyloid nucleation score of selected substances
experimentNotes: amyloid nucleation score (Sup35N fusion, yeast selection) (log enrichment); library NNK2; higher = more nucleation; inactive = no reads after selection
Answer with the value's number alone.

Completed entries (count: 10):
[
  {
    "substance": "RMLYVFSFTHNKVVIFARTE",
    "amyloid nucleation score": -1.11
  },
  {
    "substance": "NKFDRFMFPRVR",
    "amyloid nucleation score": -0.98
  },
  {
    "substance": "YVQTSKCGS",
    "amyloid nucleation score": 7.1
  },
  {
    "substance": "ALCKMQLITSSYQGPATEDL",
    "amyloid nucleation score": -0.168
  },
  {
    "substance": "SACLFLDME",
    "amyloid nucleation score": 0.664
  },
  {
    "substance": "QKYRVL",
    "amyloid nucleation score": -0.611
  },
  {
    "substance": "DYVRCVDLSN",
    "amyloid nucleation score": -0.863
  },
  {
    "substance": "YRFVLVRNKVSYH",
    "amyloid nucleation score": -0.827
  },
  {
    "substance": "KERLAFCMYGLGVDYVTFGN",
    "amyloid nucleation score": 0.497
  },
  {
    "substance": "SCSERLSMWLRED",
    "amyloid nucleation score": 4.62
  }
]

Note down amyloid nucleation score recorded for GSYCQWIYF
1.99

Read the entry YRATYVLRVAFSWVVSCPGD and write its reported amyloid nucleation score.
-0.377

Return value of amyloid nucleation score for input ALPAFELGEFNNADHSHDDN , no commentary.
-0.464

Return amyloid nucleation score for the following substance: WNGQDGQGLVGLKRP
0.344

Quote amyloid nucleation score reported for FAEFKVQIYLSWLYPEIPVN please.
-0.455

Input RWTWNSEVRNLRIFASYPGC , output reported amyloid nucleation score.
-0.418
